# Tested on: HePG2 cell line
# ASSAY SUMMARY: In vitro antitumor MTT assay, HePG2
# Type: cell-based
# STUDY CONDITIONS: Homo sapiens, HepG2; read-out: IC50 (µM) HePG2
QUANTITY KIND: IC50 (µM)

Answered cases to consult:
[[record]]
compound = "COc1ccc(C=C2CCCCCC2=O)cc1OC1CCCC1"
unit_spec = "µM"
quantitative_readout = 86.9

[[record]]
compound = "COc1ccc(C2NC(=O)NC3=C2C(=O)CC(C)(C)C3)cc1OC1CCCC1 (stereo not shown)"
unit_spec = "µM"
quantitative_readout = 18.5

[[record]]
compound = "COc1ccc(-c2cc(-c3ccc(Cl)c(Cl)c3)[nH]c(=O)c2C#N)cc1OC1CCCC1 [Compound 12c]"
unit_spec = "µM"
quantitative_readout = 59.6

[[record]]
compound = "COc1ccc(C(=S)N2CCOCC2)cc1OC1CCCC1"
unit_spec = "µM"
quantitative_readout = 32.9

[[record]]
compound = "COc1ccc(-c2[nH]c(=S)[nH]c(=O)c2C#N)cc1OC1CCCC1"
unit_spec = "µM"
quantitative_readout = 8.71

[[record]]
compound = "COc1ccc(C(=S)N2CCN(C(=O)OC(C)(C)C)CC2)cc1OC1CCCC1"
unit_spec = "µM"
quantitative_readout = 36.3


1 = COc1ccc(C2NC(=S)NC3=C2CCCCC3)cc1OC1CCCC1 (stereo not shown)
2 = COc1ccc(-c2nc3n(c(=O)c2C#N)C(=O)CS3)cc1OC1CCCC1
3 = COc1ccc(-c2cc(-c3ccc(C)cc3)[nH]c(=O)c2C#N)cc1OC1CCCC1 [Compound 12b]
Place the items in sequence of falling IC50. Lab note: record answer as labels in requested order.
1, 3, 2

P = COc1ccc(C2NC(=S)NC3=C2CCCC3)cc1OC1CCCC1 (stereo not shown)
Q = CCN1CCC(=O)C(=Cc2ccc(OC)c(OC3CCCC3)c2)C1
R = COc1ccc(C2NC(=S)NC3=C2C(=O)CC(C)(C)C3)cc1OC1CCCC1 (stereo not shown)
Place the items in sequence of falling IC50. Lab note: record answer as labels in requested order.
P, R, Q

a = COc1ccc(C=C2CCCCC2=O)cc1OC1CCCC1
b = COc1ccc(C(=S)N(C)C)cc1OC1CCCC1
c = CN(C)C/C=C/C(=O)Nc1cc2c(Nc3ccc(F)c(Cl)c3)ncnc2cc1O[C@H]1CCOC1 [Afatinib, afatinib, reference compound]
d = COc1ccc(C(=S)N2CCCCC2)cc1OC1CCCC1
Place the items in sequence of falling IC50. Lab note: record answer as labels in requested order.
b, a, d, c

A = COc1ccc(C(=S)Nc2ccc(F)cc2)cc1OC1CCCC1
B = COc1ccc(C=C2CCCC2=O)cc1OC1CCCC1
C = COc1ccc(C=C2CN(C)CCC2=O)cc1OC1CCCC1
Ascending sort, IC50. Lab note: record answer as labels in requested order.
C, A, B

====

# System: HePG2, HCT-116, MCF-7, PC3, and HeLa cell lines
# ASSAY SUMMARY: In vitro antitumor MTT assay, panel of five human cancer cell lines (text summaries)
# Format: cell-based
# STUDY CONDITIONS: Homo sapiens, range over (all or some of) HePG2, HCT-116, MCF-7, PC3, HeLa; read-out: IC50, antitumor activity, range over the tested cancer cell lines
# Experimental: The antitumor activity was performed by using the tetrazolium salt 3-(4,5-dimethyl-2-thiazolyl)-2,5-diphenyl-2H-tetrazolium bromide (MTT) assay in accordance with an established method. Compounds 3a–c, 4a,b, 5a,b, 6a,b, 7a–e, 8, 9a–c, 10, 11, 12a–c, 13, and 14 were screened for their in vitro antitumor activity by using the standard 3-(4,5-dimethylthiazol-2-yl)-2,5-diphenyltetrazolium bromide (MTT) assay against five human cancers: HePG2, HCT-116, MCF-7, PC3, and HeLa cell lines. […].
This listing pairs compounds with measured IC50.

[[record]]
compound = "CCN1CCC(=O)C(=Cc2ccc(OC)c(OC3CCCC3)c2)C1"
quantity_kind = "IC50"
result = "4.38 to 22.9 µM"

[[record]]
compound = "COc1ccc(C=C2CN(C)CCC2=O)cc1OC1CCCC1"
quantity_kind = "IC50"
result = "4.38 to 22.9 µM"

[[record]]
compound = "COc1ccc(C(=S)N2CCN(C(=O)OC(C)(C)C)CC2)cc1OC1CCCC1"
quantity_kind = "IC50"
result = "33.4 to 52.9 µM"

[[record]]
compound = "COc1ccc(-c2nc3n(c(=O)c2C#N)C(=O)CS3)cc1OC1CCCC1"
quantity_kind = "IC50"
result = "5.86 to 20.1 µM"


Dear colleague, I am looking for the recorded IC50 of the following compound: CN(C)C/C=C/C(=O)Nc1cc2c(Nc3ccc(F)c(Cl)c3)ncnc2cc1O[C@H]1CCOC1 [Afatinib, afatinib, reference compound]
5.4 to 11.4 µM

Dear colleague, I am looking for the recorded IC50 of the following compound: `COc1ccc(C(=S)N2CCOCC2)cc1OC1CCCC1`
29.2 to 48.1 µM

Dear colleague, I am looking for the recorded IC50 of the following compound: `COc1ccc(-c2[nH]c(=S)[nH]c(=O)c2C#N)cc1OC1CCCC1`
5.86 to 20.1 µM

Dear colleague, I am looking for the recorded IC50 of the following compound: `COc1ccc(C2C3=C(CC(C)(C)CC3=O)NC3=C2C(=O)CC(C)(C)C3)cc1OC1CCCC1`
29.8 to 47 µM

====

# Tested on: HCT-116 cell line
# ASSAY SUMMARY: In vitro antitumor MTT assay, HCT-116
# Format: cell-based
# STUDY CONDITIONS: Homo sapiens, HCT-116; read-out: IC50 (µM) HCT-116
QUANTITY KIND: IC50 (µM)

Answered cases to consult:
[[record]]
compound = "CCN1CCC(=O)C(=Cc2ccc(OC)c(OC3CCCC3)c2)C1"
unit_spec = "µM"
quantitative_readout = 9.48

[[record]]
compound = "COc1ccc(C2NC(=S)NC3=C2C(=O)CC(C)(C)C3)cc1OC1CCCC1 (stereo not drawn)"
unit_spec = "µM"
quantitative_readout = 25.4

[[record]]
compound = "COc1ccc(-c2cc(-c3ccccc3)[nH]c(=O)c2C#N)cc1OC1CCCC1 [Compound 12a]"
unit_spec = "µM"
quantitative_readout = 76

[[record]]
compound = "COc1ccc(C=C2CCCCCC2=O)cc1OC1CCCC1"
unit_spec = "µM"
quantitative_readout = 93.5

[[record]]
compound = "CN(C)C/C=C/C(=O)Nc1cc2c(Nc3ccc(F)c(Cl)c3)ncnc2cc1O[C@H]1CCOC1 [Afatinib, afatinib, reference compound]"
unit_spec = "µM"
quantitative_readout = 11.4


I = COc1ccc(C=C2CN(C)CCC2=O)cc1OC1CCCC1
II = COc1ccc(C(=S)N(C)C)cc1OC1CCCC1
Which entry shows the lesser value of IC50 here, I or II ? Select an item and report its label.
I

a = COc1ccc(-c2cc(-c3ccc(Cl)c(Cl)c3)[nH]c(=O)c2C#N)cc1OC1CCCC1 [Compound 12c]
b = COc1ccc(C(=S)N2CCOCC2)cc1OC1CCCC1
Which entry shows the lesser value of IC50 here, a or b ? Select an item and report its label.
b
(b: 48.1 µM, a: 83.4 µM)

====

# Tested on: HePG2, HCT-116, MCF-7, PC3, and HeLa cell lines
# ASSAY SUMMARY: In vitro antitumor MTT assay, panel of five human cancer cell lines (text summaries)
# Type: cell-based
# STUDY CONDITIONS: range over (all or some of) HePG2, HCT-116, MCF-7, PC3, HeLa; read-out: IC50, antitumor activity, range over the tested cancer cell lines
pIC50: −log10 of the molar value.
QUANTITY KIND: pIC50

Answered cases to consult:
[[record]]
compound = "COc1ccc(C=C2CN(C)CCC2=O)cc1OC1CCCC1 [Compound 4a]"
quantity_kind = "pIC50"
result = "5.04 to 5.36"

[[record]]
compound = "CCN1CCC(=O)C(=Cc2ccc(OC)c(OC3CCCC3)c2)C1 [Compound 4b]"
quantity_kind = "pIC50"
result = "4.84 to 5.14"

[[record]]
compound = "COc1ccc(-c2nc3c4ccccc4c4ccccc4c3n2-c2ccccc2)cc1OC1CCCC1 [Compound 7b]"
quantity_kind = "pIC50"
result = "4.64 to 4.93"


Consider now this further compound.
Dear colleague, I am looking for the recorded pIC50 of the following compound: COc1ccc(C2C3=C(CC(C)(C)CC3=O)NC3=C2C(=O)CC(C)(C)C3)cc1OC1CCCC1 [Compound 8]
4.15 to 4.38

====

This listing pairs molecules with measured IC50.
# Test system: PC3 cell line
# ASSAY SUMMARY: In vitro antitumor MTT assay, PC3
# Type: cell-based
# STUDY CONDITIONS: Homo sapiens, PC-3, read-out: IC50 (µM) PC3
The figure you give is taken to be in µM; do not add the unit.

[[record]]
molecule = "COc1ccc(-c2nc3c4ccccc4c4ccccc4c3n2-c2ccc(Cl)cc2)cc1OC1CCCC1"
quantitative_readout = 47

[[record]]
molecule = "Cc1ccc(-c2cc(C(F)(F)F)nn2-c2ccc(S(N)(=O)=O)cc2)cc1 [Celecoxib, celecoxib, reference compound]"
quantitative_readout = 30.7


Dear colleague, I am looking for the recorded IC50 of the following molecule: `COc1ccc(-c2nc3c4ccccc4c4ccccc4c3n2-c2ccc(C)cc2)cc1OC1CCCC1`
68.1
